- Tested on: SKBR3 (PI3Kα-Wild Type) cell line
- assay-procedure: HTRF phospho-AKT(S473) cell assay in SKBR3 cells
- Format: cell-based, human
- assay-conditions: Homo sapiens, SK-BR-3; SKBR3 (PI3Kα-Wild Type) cells, HTRF phospho-AKT(S473), 2 hours compound incubation, PDGF-BB stimulated
pIC50: −log10 of the molar value.
A collection of compounds and their measured pIC50

Recorded pIC50 of Cc1cc([C@@H](C)Nc2ccc(Cl)nc2C(=O)NS(C)(=O)=O)c2nc(N3CCn4nc(C)cc4C3)n(C)c(=O)c2c1 [Compound 166] , please.
5.30 to 6.00

pIC50 for Cc1cc([C@@H](C)Nc2ccc(Cl)nc2C(=O)NS(C)(=O)=O)c2nc(N3CCC[C@H](c4conc4C)C3)n(C)c(=O)c2c1 (relative stereo) [Compound 306] ?
5.30 to 6.00

Now look at this entry.
For Cc1cc([C@@H](C)Nc2ccc(Cl)nc2C(=O)NS(C)(=O)=O)c2nc(N3C[C@@H]4[C@H](C3)[C@H]4c3cccnc3C)n(C)c(=O)c2c1 [Compound 385] , what is its reported pIC50?
5.30 to 6.00
